# ASSAY_DETAILS: in vitro
# Set-up: species or system HB2, HEK293
# CONDITION_SET: human, ccd841 cells
List of viability at 48 h, 10 µM values.
State just the number; it will be interpreted in %.

Example results:
COMPOUND | UNIT_ANNOTATION | OBSERVED_MEASUREMENT
N#Cc1c(NC(=O)CCl)sc2c1CCCCC2 [PCM-0102286] | % | 73.9
O=C(CCl)N1CCN(S(=O)(=O)c2ccc3c(c2)CCC3)CC1 [PCM-0102193] | % | 20.9

Dear colleague, I am looking for the recorded viability at 48 h, 10 µM of the following compound: CCOC(=O)C1CCN(C(=O)CCl)CC1 [PCM-0102656]
90.3

Param item = C=CC(=O)N1CCCN(C(=O)Oc2ccccc2)CC1 [PCM-0102451] ; retrieve measured viability at 48 h, 10 µM.
105

What does the data say about its viability at 48 h, 10 µM? Entry: COC(=O)c1cccc(NC(=O)CCl)c1O [PCM-0102851]
116

So what's the measured viability at 48 h, 10 µM for this one? O=C(CCl)Nc1ccc(F)cc1Cl [PCM-0103040]
68.7

Entry under review: CCN(C(=O)CCl)C1CCS(=O)(=O)C1 (centres unmarked) [PCM-0102105] . Reported viability at 48 h, 10 µM?
68.1

# get_value(readout='viability at 48 h, 10 µM', item= CCC1(C)NC(=O)N(NC(=O)CCl)C1=O (centres unmarked) [PCM-0102205] )
85.3

Entry CCNC(=O)NC(=O)CCl [PCM-0102654] has what viability at 48 h, 10 µM?
92.6

viability at 48 h, 10 µM for Cl.O=C(CCl)NCc1ccccn1 [PCM-0102950] ?
109

Given CC(NC(=O)CCl)C(=O)N(C)C (centres unmarked) [PCM-0102754] , state its recorded viability at 48 h, 10 µM.
101

----------
# ASSAY_DETAILS: in vitro
# Parameters: species or system HB2, HEK293
# CONDITION_SET: human, ccd841 cells
I'd appreciate it if you marked entries 1 when viability at 48 h, 10 µM is lower than 90% and 0 when it is not.

Observe how each entry below is paired with its result.
MOLECULE | ASSIGNED_LABEL
COc1ccc(Cl)cc1NC(=O)CCl [PCM-0102370] | 1
O=C(CCl)Nc1ccc(OC(F)(F)F)cc1 [PCM-0102276] | 1
COc1cccc(C2CCCN2C(=O)CCl)c1 (racemic) [PCM-0102716] | 1
C=CC(=O)N1CCCC(C(C)NC(=O)NC(C)(C)C)C1 (centres unmarked) [PCM-0102723] | 0
O=C(CCl)Nc1ccc(Cl)c([N+](=O)[O-])c1 [PCM-0102316] | 1
CC(c1nc2ccccc2s1)N(C)C(=O)CCl (centres unmarked) [PCM-0102793] | 1
CC1CCCN(C(=O)CCl)C1 (centres unmarked) [PCM-0102867] | 0
CCC(C)(C)NC(=O)CCl [PCM-0102161] | 0

Input CN(Cc1cccc(C(F)(F)F)c1)C(=O)CCl [PCM-0102987] ; condition: viability at 48 h, 10 µM strictly below 90%. Does it hold?
1

# check: viability at 48 h, 10 µM < 90% for C=CC(=O)N1CCn2c(cc3ccccc32)C1 [PCM-0102621]
0

Confirm or reject: viability at 48 h, 10 µM of O=C(CCl)N1CCN(C(=O)C2COc3ccccc3O2)CC1 (centres unmarked) [PCM-0102996] lies strictly below 90%
1

Bench note: check whether O=C(CCl)NC1CCCC(C(F)(F)F)C1 (centres unmarked) [PCM-0102862] shows viability at 48 h, 10 µM below 90%
0

Report whether reported viability at 48 h, 10 µM is lower than 90% (strictly) for CC(NC(=O)NC(=O)CCl)C1CC2CCC1C2 (centres unmarked) [PCM-0102997]
0
